# Tested on: MOLT-4 leukemia
# ASSAY COMMENT: NCI-60 one-dose screen, 48 h (100 = growth as untreated, 0 = no growth, -100 = all killed)
# MEASUREMENT SETUP: 10 µM unless noted
The panel holds about 83,000 compounds, 20% with a hit somewhere; the sample as a whole holds those more often.
QUANTITY KIND: growth (%)
Provide the reading as a plain figure in %.

STRUCTURE NOTATION | growth [%]
Cc1cccc(C)c1NC(=O)CSC(=S)N1CCN(CCOCCO)CC1 | 104
O=S(=O)(NCCNc1cc(-c2cn(-c3ccccc3)nc2-c2cccc(O)c2)ccn1)c1ccccc1 | 25.1

// field: growth; key: O=C(O[C@@H]1Cc2c(O)cc(O)cc2O[C@@H]1c1cc(O)c(O)c(O)c1)c1cc(O)c2c(c1)OCO2 ; value = 81.5

// field: growth; key: Cc1ccc2c(c1)c(-c1nc(-c3c[nH]c4ncccc34)cs1)cn2C ; value = 75.2

// field: growth; key: COc1ccc(/C(=C\c2ccc3c(c2)OCO3)C(=O)Nc2nc3ccccc3s2)cc1OC ; value = 74.4

---

# Test system: SNB-19 CNS
# ASSAY COMMENT: NCI-60 one-dose screen, 48 h (100 = growth as untreated, 0 = no growth, -100 = all killed)
# MEASUREMENT SETUP: 10 µM unless noted
Compounds without any hit were thinned out: in the full panel of roughly 83,000, 20% have a hit. Activity calls are given as the source filed them. Rule for the calls: active = growth percent below 10; inactive = the rest.
growth values by entry

Past entries and their recorded results:
COMPOUND | TESTED SYSTEM | growth
CCN1CCN(C(=O)[C@@]2(C)CC[C@]3(C)CC[C@]4(C)C(=CC(=O)[C@@H]5[C@@]6(C)CC[C@H](OC7C[C@@H](O)[C@@H](O)C(C)O7)C(C)(C)[C@@H]6CC[C@]54C)[C@@H]3C2)CC1 (stereo partly specified) | SNB-19 CNS | 39% (inactive)
COc1cc2nc(Cl)nc(Nc3cccc(C(=O)/C=C/c4ccc(F)cc4)c3)c2cc1OC | SNB-19 CNS | 50.1% (inactive)
COc1ccc2nc(-c3c(-c4ccccc4)nc4ncccn34)[nH]c2c1 | SNB-19 CNS | 101% (inactive)
COc1ccc(/C=C/C(=O)NCC(C)O)cc1 (stereo unspecified) | SNB-19 CNS | 109% (inactive)
COc1ccc(/C=C/C(=O)NCCO)cc1 | SNB-19 CNS | 111% (inactive)

// field: growth; key: CN1CCN(c2ccc3nc(-c4[nH]ncc4Nc4ncnc5[nH]ccc45)[nH]c3c2)CC1 ; value = 2.27% (active)

---

# Tested on: SK-MEL-5 melanoma
# ASSAY COMMENT: NCI-60 one-dose screen, 48 h (100 = growth as untreated, 0 = no growth, -100 = all killed)
# MEASUREMENT SETUP: 10 µM unless noted
Compounds without any hit were thinned out: in the full panel of roughly 83,000, 20% have a hit.
Could you please mark Satisfied for values of growth below 90% and Not satisfied for values at or above it?

[in] Strictly below 90% in growth? COC(=O)C(Cc1ccccc1)n1cc(COc2nc(Cl)nc(Nc3ccc(Cl)cc3)n2)nn1 (stereo unspecified)
[out] Not satisfied

[in] Strictly below 90% in growth? C=C1C(=O)O[C@H]2[C@H]1CC/C(COC(=O)NCCc1c[nH]c3ccccc13)=C\CC[C@@]1(C)O[C@@H]21
[out] Satisfied

[in] Strictly below 90% in growth? CN1CCN(c2ccc3nc(-c4[nH]ncc4Nc4ncnc5[nH]ccc45)[nH]c3c2)CC1
[out] Satisfied

[in] Strictly below 90% in growth? C#CCn1c2c(c3ccccc31)C[C@]1(C)[C@H]3CC[C@@H]4[C@@H]5C(=CCC[C@H]5C(=C)C)CC[C@@]4(C)[C@]3(C)CC[C@H]1C2(C)C
[out] Not satisfied

[in] Strictly below 90% in growth? COC(=O)[C@]12CC[C@@H](C(C)=O)[C@@H]1[C@H]1CC[C@@H]3[C@@]4(C)C/C(=C/c5cccnc5)C(=O)C(C)(C)[C@@H]4CC[C@@]3(C)[C@]1(C)CC2
[out] Satisfied

[in] Strictly below 90% in growth? COc1cnc2c(c1)C(=O)c1c-2n(CCCN2CCN(CCO)CC2)c(=O)c2cc([N+](=O)[O-])ccc12
[out] Satisfied

[in] Strictly below 90% in growth? CC(=O)OC[C@]12CC[C@@H](/C(C)=N/O)[C@@H]1[C@H]1CC[C@@H]3[C@@]4(C)CCCNC(C)(C)[C@@H]4CC[C@@]3(C)[C@]1(C)CC2
[out] Satisfied

[in] Strictly below 90% in growth? CCCCCCCN(CCCCCCC)C(=N)c1ccnc2ccccc12
[out] Satisfied

[in] Strictly below 90% in growth? CCSc1ncnc2c1ncn2C1OC(CO)C(O)C1O (stereo unspecified)
[out] Satisfied

[in] Strictly below 90% in growth? COC(=O)[C@]12CC[C@@H](C)[C@H](C)[C@@H]1C1=CC[C@@H]3[C@@](C)(CC#N)C4=C(C[C@@]3(C)[C@]1(C)CC2)OC[C@]4(C)C=O
[out] Satisfied

[in] Strictly below 90% in growth? Cn1c(=O)c2c(ncn2CCC(=O)Nc2ccc(F)cc2)n(C)c1=O
[out] Not satisfied

[in] Strictly below 90% in growth? CC1(C)NCCC[C@]2(C)[C@H]3CC[C@@H]4[C@H]5[C@H](C(=O)/C=C/c6ccccn6)CC[C@]5(CO)CC[C@@]4(C)[C@]3(C)CC[C@@H]12
[out] Satisfied

[in] Strictly below 90% in growth? Cc1ccc(-c2nn(Cc3cn(-c4cc(C)nc5ccccc45)nn3)c3ncnc(N)c23)cc1
[out] Satisfied

[in] Strictly below 90% in growth? Nc1nc2c(c(=O)[nH]1)C(c1ccc3c(c1)OCO3)C=C(C(=O)O)N2 (stereo unspecified)
[out] Not satisfied

[in] Strictly below 90% in growth? Cc1ccc(NC2CC(=O)N(c3c(C)cc(C)cc3C)C2=O)c(C)c1 (stereo unspecified)
[out] Not satisfied

---

# System: COLO 205 colon
# ASSAY COMMENT: NCI-60 one-dose screen, 48 h
# MEASUREMENT SETUP: 10 µM unless noted
# Protocol: Cells are grown in 96 well plates and exposed to the test compound for 48 hours. Compounds are tested at a single concentration, which is 10^-5 M for most compounds. The reported endpoint is percent growth (GI% or GIPRCNT), where numbers from 0 - 100% represent growth inhibition, and numbers from -100% - 0 represent cell death. For example, a value of 40 represents 60% growth inhibition. A value of 0 means no net growth occurred over the course of the experiment. […]
This is part of a sample that, as a whole, favours compounds with a hit. Of some 83,000 tested, about 20% had one in any assay. The source made the active and inactive calls. Rule for the calls: active = growth percent below 10; inactive = the rest.
Answer with one of the outcomes Y for active, N for inactive

Worked set:
STRUCTURE NOTATION | TESTED SYSTEM | CLASS
COC1=C(Br)C(=O)C(OC)=C(Br)C1=O | COLO 205 colon | N
COc1ccc(C(=O)/C=C/c2cc(-c3cc(OC)c(OC)c(OC)c3)n[nH]2)cc1OC | COLO 205 colon | Y
CC(C)=CCC/C(C)=C/CC/C(C)=C/CC/C(C)=C/CSC[C@H](NC(=O)CCCCCN1CCN(C)CC1)C(=O)NC1CCCCC1 | COLO 205 colon | Y
CN1CCN(c2nc(-c3csc(-c4cccs4)n3)cc3ccccc23)CC1 | COLO 205 colon | Y
COC(=O)[C@]12CC[C@@H](C)[C@H](C)[C@@H]1C1=CC[C@@H]3[C@@]4(C)C[C@@H](OC(C)=O)[C@H](O)[C@@](C)(CO)[C@@H]4[C@H](O)C[C@@]3(C)[C@]1(C)CC2 | COLO 205 colon | Y

[in] Please indicate how the test categorized CN(C)c1ccc(N=C2C=CC(=O)C=C2)cc1 .
[out] N

[in] Please indicate how the test categorized COc1ccc(-c2nc3c(c(C)nn3-c3ccc(F)cc3)c(=O)[nH]2)cc1 .
[out] N

[in] Please indicate how the test categorized CC(=O)O[C@H]1CC[C@]2(C)[C@H]3C(=O)C=C4[C@@H]5C[C@](C)(C(=O)N6CCCNCC6)CC[C@]5(C)CC[C@@]4(C)[C@]3(C)CC[C@H]2C1(C)C .
[out] Y

---

# Test system: SW-620 colon
# ASSAY COMMENT: NCI-60 one-dose screen, 48 h (100 = growth as untreated, 0 = no growth, -100 = all killed)
# MEASUREMENT SETUP: 10 µM unless noted
This is part of a sample that, as a whole, favours compounds with a hit. Of some 83,000 tested, about 20% had one in any assay.
Use criterion met when the recorded growth is no lower than 70%; use criterion not met when it is lower.

Worked set:
COMPOUND | TESTED SYSTEM | CLASS
C[N+](C)(CCCCCC[N+](C)(C)C1c2ccccc2-c2ccccc21)C1c2ccccc2-c2ccccc21 | SW-620 colon | criterion met
CCCC(=O)N1CCCCC1CC (stereo not given) | SW-620 colon | criterion met
COc1cc(C(=O)/C=C/c2cc(-c3ccc4c(c3)OCO4)n[nH]2)cc(OC)c1OC | SW-620 colon | criterion not met

[in] Answer whether growth of COc1ccc(-c2n[nH]nc2-c2cc3ccccc3s2)cc1O is greater than or equal to 70%.
[out] criterion not met

[in] Answer whether growth of COc1cc2nc(Cl)nc(Nc3cccc(C(=O)/C=C/c4ccc(Cl)cc4)c3)c2cc1OC is greater than or equal to 70%.
[out] criterion not met

[in] Answer whether growth of N#CCCCCCn1c2ccccc2c2c3c(c4c5ccccc5n(CCCCCC#N)c4c21)C(=O)N(O)C3=O is greater than or equal to 70%.
[out] criterion met

// provenance: PubChem BioAssay (NCI)
